species: Rattus norvegicus; assay: Open TG-GATES - Regimen: Daily Repeat; type: toxicity, organism-based, Sprague-Dawley; set-up: regimen Daily Repeat, gender Male, age 6 weeks; details: in vivo, po, 1000 mg/kg, 72 h, tissue Blood, route gavage, dose level High, time 3 day
Please provide measured PT for the entries that follow.
Answer in s, number only, no unit symbol.

Given the compound CCCCNC(=O)NS(=O)(=O)c1ccc(C)cc1 [TOLBUTAMIDE] , write its reported PT. 12.8

Given the compound O=C(O)c1ccccc1Nc1ccccc1 , write its reported PT. 14

Given the compound CC(=O)[C@@]1(O)CC[C@H]2[C@@H]3C=C(Cl)C4=CC(=O)CC[C@]4(C)[C@H]3CC[C@@]21C , write its reported PT. 14.4

Given the compound CC(S)C(=O)NCC(=O)O (centres undefined) , write its reported PT. 15.8
